src = patent US20190307833A1

- experiment description: Stability in artificial gastric juice
- Assay type: in vitro ADME
- measurement context: simulated gastric fluid; during 30 minutes; read-out: stable in artificial gastric juice
*1 amine or outer side, *2 acyl side, *3 side chain or, on linkers, in order; H or OH if unused. Where a SMILES comes first, the peptide text is derived from it. [ ]: non-standard residue; d: D form. X1 = O=C(C1(N[*:1])C2CC3CC(C2)CC1C3)[*:2]
observable: remaining at 0.5 h

# input Recorded remaining at 0.5 h for CC(=O)N[C@@H](CC(=O)O)C(=O)NCC(=O)NCC(=O)N[C@@H](CC(C)C)C(=O)NC1(C(N)=O)C2CC3CC(C2)CC1C3 (stereo partly shown) [P021, Ac-DGGL^AG-NH2] (Ac-DGGL[X1]-NH2) , please?
# output ~90%
